Taken from patent US10981905B2.

Molecular target: Nav1.6 (Homo sapiens (Human))
Sequence (Q9UQD0 whole entry, looked up): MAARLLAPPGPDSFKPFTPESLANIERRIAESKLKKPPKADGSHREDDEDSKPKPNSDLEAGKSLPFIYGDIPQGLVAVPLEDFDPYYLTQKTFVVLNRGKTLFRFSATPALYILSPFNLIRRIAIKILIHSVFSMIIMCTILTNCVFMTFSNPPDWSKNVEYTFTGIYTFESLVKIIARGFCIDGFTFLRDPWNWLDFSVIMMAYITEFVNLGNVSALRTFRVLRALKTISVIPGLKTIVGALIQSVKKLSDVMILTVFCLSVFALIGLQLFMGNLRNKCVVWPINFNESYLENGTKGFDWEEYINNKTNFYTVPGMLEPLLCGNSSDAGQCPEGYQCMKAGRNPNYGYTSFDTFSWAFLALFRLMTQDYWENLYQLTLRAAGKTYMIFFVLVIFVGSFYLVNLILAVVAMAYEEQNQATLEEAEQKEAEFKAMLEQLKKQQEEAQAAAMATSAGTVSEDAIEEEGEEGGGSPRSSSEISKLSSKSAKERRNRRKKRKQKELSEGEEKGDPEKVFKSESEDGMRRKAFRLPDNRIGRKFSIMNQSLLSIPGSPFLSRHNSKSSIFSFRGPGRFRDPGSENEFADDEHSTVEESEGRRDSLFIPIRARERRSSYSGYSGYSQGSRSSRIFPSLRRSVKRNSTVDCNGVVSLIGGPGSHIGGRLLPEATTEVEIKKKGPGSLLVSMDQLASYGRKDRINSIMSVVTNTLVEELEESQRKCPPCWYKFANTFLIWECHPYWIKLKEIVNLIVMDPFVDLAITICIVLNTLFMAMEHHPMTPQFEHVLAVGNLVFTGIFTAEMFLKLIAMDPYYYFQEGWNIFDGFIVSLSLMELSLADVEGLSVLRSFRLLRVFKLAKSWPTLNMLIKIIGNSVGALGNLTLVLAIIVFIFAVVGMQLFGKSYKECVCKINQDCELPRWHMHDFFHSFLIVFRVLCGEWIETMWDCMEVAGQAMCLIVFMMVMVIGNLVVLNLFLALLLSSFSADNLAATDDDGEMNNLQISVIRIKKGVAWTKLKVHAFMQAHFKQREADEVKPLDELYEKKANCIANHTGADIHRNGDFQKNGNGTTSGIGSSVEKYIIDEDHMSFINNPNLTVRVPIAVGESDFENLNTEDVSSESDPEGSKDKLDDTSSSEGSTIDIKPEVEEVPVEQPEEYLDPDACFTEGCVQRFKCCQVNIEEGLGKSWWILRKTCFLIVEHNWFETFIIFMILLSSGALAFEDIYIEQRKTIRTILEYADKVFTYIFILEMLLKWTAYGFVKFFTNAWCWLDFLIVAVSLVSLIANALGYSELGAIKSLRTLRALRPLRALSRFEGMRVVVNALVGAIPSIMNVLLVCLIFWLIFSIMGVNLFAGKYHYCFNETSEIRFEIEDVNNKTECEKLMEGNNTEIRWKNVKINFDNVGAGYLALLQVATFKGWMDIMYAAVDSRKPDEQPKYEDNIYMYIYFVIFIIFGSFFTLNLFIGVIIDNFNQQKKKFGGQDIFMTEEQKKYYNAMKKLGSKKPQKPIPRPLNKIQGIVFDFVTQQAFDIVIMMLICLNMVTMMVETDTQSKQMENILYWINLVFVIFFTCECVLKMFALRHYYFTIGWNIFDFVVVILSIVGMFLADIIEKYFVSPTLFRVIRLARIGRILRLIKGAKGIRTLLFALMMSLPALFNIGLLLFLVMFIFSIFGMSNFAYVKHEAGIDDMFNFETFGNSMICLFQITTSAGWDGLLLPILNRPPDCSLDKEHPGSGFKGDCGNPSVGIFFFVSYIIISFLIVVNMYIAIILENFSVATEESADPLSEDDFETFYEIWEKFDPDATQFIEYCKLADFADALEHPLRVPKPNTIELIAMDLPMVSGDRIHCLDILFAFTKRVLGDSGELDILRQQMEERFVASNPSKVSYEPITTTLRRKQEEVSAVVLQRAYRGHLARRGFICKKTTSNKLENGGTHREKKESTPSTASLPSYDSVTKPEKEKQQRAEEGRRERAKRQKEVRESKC
Sequence (Q07699 whole entry partner, looked up): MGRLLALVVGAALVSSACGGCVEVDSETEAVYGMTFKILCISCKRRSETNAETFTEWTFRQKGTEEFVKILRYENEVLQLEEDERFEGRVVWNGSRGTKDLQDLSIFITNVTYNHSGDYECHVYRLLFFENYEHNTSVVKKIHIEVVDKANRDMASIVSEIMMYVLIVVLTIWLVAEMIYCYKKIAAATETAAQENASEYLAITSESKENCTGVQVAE
Experiment: Sodium Influx Assay (Flux), Nav1.6
Assay type: cell-based
Conditions: Trex HEK293 cells, ANG2 dye, inactivated state
Structures can show the parent of a compound that is named as a salt.
measurementLabel: pIC50
Give bare numbers, as −log10 of the molar value.

Record excerpt, results attached:
Input line: Any idea what its pIC50 is? The compound is Cc1nc(S(=O)(=O)Nc2cscn2)ccc1NCc1c(F)cccc1CN1C2CCC1CC2 [Example 25, trifluoroacetic acid salt]
Output line: 6.81

Input line: Any idea what its pIC50 is? The compound is Cc1nc(S(=O)(=O)Nc2cccc(F)n2)ccc1NCc1c(F)cccc1CN1CCCC1 [Example 41, trifluoroacetic acid salt]
Output line: 7.25

State recorded pIC50 for all listed compounds.
1. Cc1nc(S(=O)(=O)Nc2cscn2)ccc1NCc1c(F)cccc1CN(C)C(C)C [Example 29, trifluoroacetic acid salt]
2. C[C@H](Nc1ncc(S(=O)(=O)Nc2cscn2)cc1Cl)c1ccccc1F [Example 2]
3. Cc1nc(S(=O)(=O)Nc2cscn2)c(F)cc1NCc1c(F)cccc1CN(C)C(C)C [Example 35, trifluoroacetic acid salt]
4. Cc1nc(S(=O)(=O)Nc2cscn2)ccc1NCc1c(F)cccc1CN(C)CC1CC1 [Example 15, formic acid salt]

Output line:
1: 7.09; 2: 4.88; 3: 7.62; 4: 6.54

Input line: Any idea what its pIC50 is? The compound is Cc1nc(S(=O)(=O)Nc2cccc(F)n2)ccc1NCc1c(F)cccc1CN(C)C(C)(C)C [Example 22, trifluoroacetic acid salt]
Output line: 6.66
